Recorded measurements of OD450 at 0.10 nM, one per entry
tgt: T1, murine CD19 protein (murine, UniProt P25918 19-287, limits assumed)
T1 construct: also called mouse CD19-his protein
T1 sequence (looked up): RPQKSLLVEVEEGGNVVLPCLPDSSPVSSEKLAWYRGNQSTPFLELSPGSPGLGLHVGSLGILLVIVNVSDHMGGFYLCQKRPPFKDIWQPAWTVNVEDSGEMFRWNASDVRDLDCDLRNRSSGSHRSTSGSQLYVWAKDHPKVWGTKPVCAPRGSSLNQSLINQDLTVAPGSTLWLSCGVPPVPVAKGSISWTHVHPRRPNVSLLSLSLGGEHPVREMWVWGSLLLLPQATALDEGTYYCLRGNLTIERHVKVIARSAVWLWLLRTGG
assay name: ELISA, murine CD19 coated
Please respond with the number in OD450 and leave the unit unwritten.

Look over these answered cases.
FMC63.27-mIgG1 (antibody, V domains shown, Humanized FMC63; also called FMC63-L2H7) VH: EVTLKESGPVLVKPTETLTLTCTVSGVSLPDYGVSWIRQPPGKALEWLAVIWGSETTYYNSALKSRLTISKDNSKSQVVLTMTNMDPVDTATYYCAKHYYYGGSYAMDYWGQGTTVTVSS VL: DIQMTQSPSSLSASVGDRVTITCRASQDISKYLNWYQQKPGGAVKLLIYHTSRLHSGVPSRFSGSGSGTDYTLTISSLQPEDFATYYCQQGNTLPYTFGGGTKVEIKR :: 0.05
FMC63.25-mIgG1 (antibody, V domains shown, Humanized FMC63; also called FMC63-L2H5) VH: EVTLKESGPVLVKPTETLTLTCTVSGFSLSDYGVSWIRQPPGKALEWLAVIWGSETTYYNSALKSRLTISKDTSKSQVVLTMTNMDPVDTATYYCAKHYYYGGSYAMDYWGQGTTVTVSS VL: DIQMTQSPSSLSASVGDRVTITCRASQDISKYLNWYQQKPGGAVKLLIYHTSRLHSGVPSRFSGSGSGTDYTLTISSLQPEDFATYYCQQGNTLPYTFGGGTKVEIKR :: 0.08

For record FMC63.26-mIgG1 (antibody, V domains shown, Humanized FMC63; also called FMC63-L2H6) VH: EVTLKESGPVLVKPTETLTLTCTVSGFSLPDYGVSWIRQPPGKALEWLAVIWGSETTYYNSALKSRLTISKDTSKSQVVLTMTNMDPVDTATYYCAKHYYYGGSYAMDYWGQGTTVTVSS VL: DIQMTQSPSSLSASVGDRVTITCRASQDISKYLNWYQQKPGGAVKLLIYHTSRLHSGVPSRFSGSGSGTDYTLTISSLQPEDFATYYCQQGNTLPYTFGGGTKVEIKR the listed OD450 at 0.10 nM is 0.07

For record FMC63-mIgG1 (antibody, V domains shown, Parent murine antibody; also called murine antibody FMC63) VH: EVKLQESGPGLVAPSQSLSVTCTVSGVSLPDYGVSWIRQPPRKGLEWLGVIWGSETTYYNSALKSRLTIIKDNSKSQVFLKMNSLQTDDTAIYYCAKHYYYGGSYAMDYWGQGTSVTVSS VL: DIQMTQTTSSLSASLGDRVTISCRASQDISKYLNWYQQKPDGTVKLLIYHTSRLHSGVPSRFSGSGSGTDYSLTISNLEQEDIATYFCQQGNTLPYTFGGGTKLEITR the listed OD450 at 0.10 nM is 0.05
